These data points were gathered from ChEMBL document CHEMBL1140423.

molecular target: Mitogen-activated protein kinase 1 (Homo sapiens, UniProt P28482); experiment: Inhibitory activity against MAPK
Sequence (P28482 whole entry): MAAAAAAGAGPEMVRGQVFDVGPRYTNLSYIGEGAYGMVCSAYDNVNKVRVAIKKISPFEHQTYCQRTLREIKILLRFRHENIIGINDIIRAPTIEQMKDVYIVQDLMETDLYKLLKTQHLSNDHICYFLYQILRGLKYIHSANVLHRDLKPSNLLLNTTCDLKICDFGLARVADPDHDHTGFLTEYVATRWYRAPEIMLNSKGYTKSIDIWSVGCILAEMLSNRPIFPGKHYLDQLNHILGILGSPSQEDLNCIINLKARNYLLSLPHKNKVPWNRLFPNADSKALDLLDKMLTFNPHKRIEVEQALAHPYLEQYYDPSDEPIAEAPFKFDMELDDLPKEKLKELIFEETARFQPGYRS
readout_kind: IC50

{"columns": ["compound_structure_string", "experimental_result"],
 "data": [
  ["COc1cc2c(cc1OC)-c1n[nH]c(Nc3cccc(F)c3)c1C2", "> 100 µM"]
]}

====

target: Cyclin-dependent kinase 1 (Homo sapiens, UniProt P06493)
Sequence (P06493 whole entry): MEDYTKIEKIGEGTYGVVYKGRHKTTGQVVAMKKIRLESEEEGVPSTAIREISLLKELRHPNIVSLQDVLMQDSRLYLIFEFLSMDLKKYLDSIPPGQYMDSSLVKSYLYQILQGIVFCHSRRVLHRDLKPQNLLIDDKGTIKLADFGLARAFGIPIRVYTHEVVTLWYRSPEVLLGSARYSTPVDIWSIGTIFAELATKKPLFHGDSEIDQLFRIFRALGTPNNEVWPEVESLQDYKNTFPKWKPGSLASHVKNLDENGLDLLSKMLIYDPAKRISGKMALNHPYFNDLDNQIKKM

{"columns": ["compound_structure_string", "IC50"],
 "data": [
  ["COc1cc2c(cc1OC)-c1n[nH]c(Nc3cccc(F)c3)c1C2", "> 100 µM"]
]}

====

molecular target: Cyclin-dependent kinase 4 (Homo sapiens, UniProt P11802)
Sequence (P11802 whole entry): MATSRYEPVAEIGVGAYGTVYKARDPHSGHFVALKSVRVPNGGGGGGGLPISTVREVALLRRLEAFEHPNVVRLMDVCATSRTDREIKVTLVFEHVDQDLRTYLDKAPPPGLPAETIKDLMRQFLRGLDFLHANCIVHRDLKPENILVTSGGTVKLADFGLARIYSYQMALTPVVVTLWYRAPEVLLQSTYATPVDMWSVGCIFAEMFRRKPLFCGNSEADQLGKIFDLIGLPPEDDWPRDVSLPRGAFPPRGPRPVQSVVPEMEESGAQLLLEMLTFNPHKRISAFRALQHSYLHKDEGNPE
readout_kind: IC50

{"columns": ["compound_structure_string", "readout_kind", "experimental_result"],
 "data": [
  ["COc1cc2c(cc1OC)-c1n[nH]c(Nc3cccc(F)c3)c1C2", "IC50", "> 100 µM"]
]}
